Please provide measured pIC50 for the entries that follow.
test: Antioxidant activity assessed as DPPH radical scavenging activity after 30 mins; assay type: functional
pIC50 here: minus log base 10 of the concentration, concentration in moles per litre.

Looking up COc1cc(C2Oc3cc([C@H]4Oc5cc(O)cc(O)c5C(=O)[C@@H]4O)ccc3OC2CO)ccc1O (mixture of isomers) [SILIBININ] , I found its pIC50 recorded as 3.26

Looking up COc1cc([C@@H]2Oc3c(O)cc([C@@H]4CC(=O)c5c(O)cc(O)cc5O4)cc3[C@H]2CO)ccc1O , I found its pIC50 recorded as 4.37

Looking up COc1cc(-c2oc3c(O)cc(-c4oc5cc(O)cc(O)c5c(=O)c4O)cc3c2C)ccc1O , I found its pIC50 recorded as 5.45

Looking up COc1cc([C@@H]2Oc3c(O)cc(-c4oc5cc(O)cc(O)c5c(=O)c4O)cc3[C@H]2CO)ccc1O , I found its pIC50 recorded as 5.31

Looking up COc1cc(C2Oc3cc(-c4oc5cc(O)cc(O)c5c(=O)c4O)ccc3OC2CO)ccc1O (stereo not drawn) [DEHYDROSILYLBIN] , I found its pIC50 recorded as 5.03

Looking up COc1cc(-c2oc3c(O)cc([C@H]4Oc5cc(O)cc(O)c5C(=O)[C@@H]4O)cc3c2C)ccc1O , I found its pIC50 recorded as 4.75

Looking up COc1cc(C2Oc3c(O)cc([C@H]4Oc5cc(O)cc(O)c5C(=O)[C@@H]4O)cc3C2CO)ccc1O (stereo partly drawn) [SILICRISTIN] , I found its pIC50 recorded as 4.72

Looking up COc1cc([C@@H]2Oc3c(O)ccc([C@H]4Oc5cc(O)cc(O)c5C(=O)[C@@H]4O)c3[C@H]2CO)ccc1O [ISOSILYCHRISTIN] , I found its pIC50 recorded as 4.27
